- System: 997726-040-R-J2-PDC tumor spheroids, viability;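 further: spheroids exposed to compounds for seven days before readout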
- Protocol details: Anticancer human tumor 997726-040-R-J2-PDC patient-derived squamous cell lung carcinoma cell line growth inhibition [PI3K]; active means viability on the fitted dose curve at most 10% of control; inactive means the rest
- Condition notes: second compound 0.0316 µM; first compound 10 µM; spheroids with HUVEC and MSC
Thanks in advance; please answer with one of these: Y (active), N (inactive)

Challenge: Check the results log: what was the call for C#Cc1c(F)ccc2cc(O)cc(-c3ncc4c(N5CC6CCC(C5)N6)nc(OCC56CCCN5CC(F)C6)nc4c3F)c12 (stereo unspecified) + CC(Nc1ncnc2nc[nH]c12)c1cc2cccc(Cl)c2c(=O)n1-c1ccccc1 ?
Response given: N

Challenge: Check the results log: what was the call for CNC(=O)c1ccc(N2C(=S)N(c3ccc(C#N)c(C(F)(F)F)c3)C(=O)C2(C)C)cc1F + COc1c(OCCCN2CCOCC2)ccc2c3n(c(=NC(=O)c4cnc(N)nc4)nc12)CCN3 ?
Response given: N

Challenge: Check the results log: what was the call for CNC(=O)c1ccc(N2C(=S)N(c3ccc(C#N)c(C(F)(F)F)c3)C(=O)C2(C)C)cc1F + Cc1nc(NC(=O)N2CCCC2C(N)=O)sc1-c1ccnc(C(C)(C)C(F)(F)F)c1 ?
Response given: N

Challenge: Check the results log: what was the call for C#Cc1c(F)ccc2cc(O)cc(-c3ncc4c(N5CC6CCC(C5)N6)nc(OCC56CCCN5CC(F)C6)nc4c3F)c12 (stereo unspecified) + CC(Nc1ccc2c(c1)OCCn1cc(N3C(=O)OCC3C(F)F)nc1-2)C(N)=O ?
Response given: N

Challenge: Check the results log: what was the call for Cn1nccc1Nc1nccc(-c2ccn(C(CO)c3ccc(Cl)c(F)c3)c(=O)c2)n1 (stereo unspecified) + COc1c(OCCCN2CCOCC2)ccc2c3n(c(=NC(=O)c4cnc(N)nc4)nc12)CCN3 ?
Response given: N

Challenge: Check the results log: what was the call for CC1(C)CCC(CN2CCN(c3ccc(C(=O)NS(=O)(=O)c4ccc(NCC5CCOCC5)c([N+](=O)[O-])c4)c(Oc4cnc5[nH]ccc5c4)c3)CC2)=C(c2ccc(Cl)cc2)C1 + CC(Nc1ncnc2nc[nH]c12)c1cc2cccc(Cl)c2c(=O)n1-c1ccccc1 ?
Response given: N

Challenge: Check the results log: what was the call for CC(Cn1ccc(-c2ccc(C#N)c(Cl)c2)n1)NC(=O)c1cc(C(C)O)[nH]n1 (stereo unspecified) + COc1c(OCCCN2CCOCC2)ccc2c3n(c(=NC(=O)c4cnc(N)nc4)nc12)CCN3 ?
Response given: N

Challenge: Check the results log: what was the call for CNC(=O)c1ccc(N2C(=S)N(c3ccc(C#N)c(C(F)(F)F)c3)C(=O)C2(C)C)cc1F + CC(Nc1ccc2c(c1)OCCn1cc(N3C(=O)OCC3C(F)F)nc1-2)C(N)=O ?
Response given: N

Challenge: Check the results log: what was the call for Cn1nccc1Nc1nccc(-c2ccn(C(CO)c3ccc(Cl)c(F)c3)c(=O)c2)n1 (stereo unspecified) + Cc1nc(NC(=O)N2CCCC2C(N)=O)sc1-c1ccnc(C(C)(C)C(F)(F)F)c1 ?
Response given: N

Challenge: Check the results log: what was the call for CC(C)NCC(C(=O)N1CCN(c2ncnc3c2C(C)CC3O)CC1)c1ccc(Cl)cc1 (stereo unspecified) + COc1c(OCCCN2CCOCC2)ccc2c3n(c(=NC(=O)c4cnc(N)nc4)nc12)CCN3 ?
Response given: Y

Challenge: Check the results log: what was the call for CC(Cn1ccc(-c2ccc(C#N)c(Cl)c2)n1)NC(=O)c1cc(C(C)O)[nH]n1 (stereo unspecified) + CC(Nc1ccc2c(c1)OCCn1cc(N3C(=O)OCC3C(F)F)nc1-2)C(N)=O ?
Response given: N

Challenge: Check the results log: what was the call for Cn1ncc(Cl)c1-c1cc(C(=O)NC(CN)Cc2cccc(F)c2)sc1Cl (stereo unspecified) + COc1c(OCCCN2CCOCC2)ccc2c3n(c(=NC(=O)c4cnc(N)nc4)nc12)CCN3 ?
Response given: Y

Challenge: Check the results log: what was the call for C[C@@H](NC(=O)c1ncnc(N)c1Cl)c1ncc(C(=O)Nc2cc(C(F)(F)F)c(Cl)cn2)s1 + Cc1nc(NC(=O)N2CCCC2C(N)=O)sc1-c1ccnc(C(C)(C)C(F)(F)F)c1 ?
Response given: N

Challenge: Check the results log: what was the call for Cn1nccc1Nc1nccc(-c2ccn(C(CO)c3ccc(Cl)c(F)c3)c(=O)c2)n1 (stereo unspecified) + CC(Nc1ncnc2nc[nH]c12)c1cc2cccc(Cl)c2c(=O)n1-c1ccccc1 ?
Response given: N

Challenge: Check the results log: what was the call for CCCS(=O)(=O)Nc1ccc(F)c(C(=O)c2c[nH]c3ncc(-c4ccc(Cl)cc4)cc23)c1F + CC(Nc1ccc2c(c1)OCCn1cc(N3C(=O)OCC3C(F)F)nc1-2)C(N)=O ?
Response given: N

Challenge: Check the results log: what was the call for CC1(C)CCC(Nc2ncc(C(F)(F)F)c(-c3c[nH]c4c(P(C)(C)=O)c(C#N)ccc34)n2)CN1 (stereo unspecified) + CC(Nc1ccc2c(c1)OCCn1cc(N3C(=O)OCC3C(F)F)nc1-2)C(N)=O ?
Response given: N

Challenge: Check the results log: what was the call for CC(C)NCC(C(=O)N1CCN(c2ncnc3c2C(C)CC3O)CC1)c1ccc(Cl)cc1 (stereo unspecified) + Cc1nc(NC(=O)N2CCCC2C(N)=O)sc1-c1ccnc(C(C)(C)C(F)(F)F)c1 ?
Response given: Y

Challenge: Check the results log: what was the call for C[C@@H](NC(=O)c1ncnc(N)c1Cl)c1ncc(C(=O)Nc2cc(C(F)(F)F)c(Cl)cn2)s1 + COc1c(OCCCN2CCOCC2)ccc2c3n(c(=NC(=O)c4cnc(N)nc4)nc12)CCN3 ?
Response given: N

Challenge: Check the results log: what was the call for CNC(=O)c1ccc(N2C(=S)N(c3ccc(C#N)c(C(F)(F)F)c3)C(=O)C2(C)C)cc1F + CC(Nc1ncnc2nc[nH]c12)c1cc2cccc(Cl)c2c(=O)n1-c1ccccc1 ?
Response given: N

Challenge: Check the results log: what was the call for CCCS(=O)(=O)Nc1ccc(F)c(C(=O)c2c[nH]c3ncc(-c4ccc(Cl)cc4)cc23)c1F + COc1c(OCCCN2CCOCC2)ccc2c3n(c(=NC(=O)c4cnc(N)nc4)nc12)CCN3 ?
Response given: N

Challenge: Check the results log: what was the call for C=CC(=O)N1CCN(c2nc(=O)n(-c3c(C)ccnc3C(C)C)c3nc(-c4c(O)cccc4F)c(F)cc23)C(C)C1 (stereo unspecified) + Cc1nc(NC(=O)N2CCCC2C(N)=O)sc1-c1ccnc(C(C)(C)C(F)(F)F)c1 ?
Response given: N

Source listed as PubChem BioAssay AID1963964.
